readout-name: IC50 (µM)
Output spec: scalar in µM, unitless text.

Task item: Look up and report measured IC50 (UniProt:Q92793) for the following molecule: COCC(=O)N1CC(n2cc(C)c3c2C(c2ccc(Cl)cc2)N(c2cc(C)c4nnc(C)n4c2)C3=O)C1 (stereo not shown) [Example 12]
Sequence (Q92793 1081-1197): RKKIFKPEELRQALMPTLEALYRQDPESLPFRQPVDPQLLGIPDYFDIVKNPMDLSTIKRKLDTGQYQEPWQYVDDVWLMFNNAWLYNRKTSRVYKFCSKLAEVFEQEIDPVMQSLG
Reply: 23.9

Task item: Find IC50 for Cn1ccc2c1C(c1ccccc1)N(c1cc(Cl)c(=O)n(C)c1)C2=O (stereo not shown) [Example 86] on UniProt:Q92793 and write it down.
Reply: 18.4

====

These compounds were tested on BRD4 (Homo sapiens (Human), UniProt O60885); log10 IC50 is the recorded read-out.
Heads up, the numbers here are log10 of IC50 in µM units.

Task item: Consider the compound Cn1ccc2c1C(c1ccc(Cl)cc1)N(c1ccc(=O)n(C)c1)C2=O (stereo not drawn) [Example 78] . State its measured log10 IC50.
Reply: -0.82

Task item: Please report the measured log10 IC50 for CCOC(=O)n1cc(C2CC2)c2c1C(c1ccc(Cl)cc1)N(c1cc(C)c3nnc(C)n3c1)C2=O (stereo not drawn) [Example 125]
Reply: -1.82

Task item: For Cc1cc(N2C(=O)c3cc(-c4ccn(C)c(=O)c4)n(C)c3C2c2ccc(Cl)cc2)cn(C)c1=O (stereo not drawn) [Example 45] , write its log10 IC50.
Reply: -1.61

Task item: Report log10 IC50 for Cc1cc(N2C(=O)c3cc(-c4ccc(N(C)C)nc4)n(C)c3C2c2ccc(Cl)cc2)cn(C)c1=O (stereo not drawn) [Example 50]
Reply: -1.34

Task item: Recall and state the measured log10 IC50 for Cc1cc(N2C(=O)c3cc(-c4cccnc4O)[nH]c3C2c2ccc(Cl)cc2)cn2c(C)nnc12 (stereo not drawn) [Example 26] .
Reply: -1.22

Task item: State its log10 IC50 for this compound: Cc1cc(N2C(=O)c3cc(-c4cccc(N(C)C)n4)n(C)c3C2c2ccc(Cl)cc2)cn(C)c1=O (stereo not drawn) [Example 51]
Reply: -1.48

Task item: Output measured log10 IC50 for this item: Cc1cc(N2C(=O)c3ccn(C)c3C2c2ccc(F)cc2)cn(C)c1=O (stereo not drawn) [Example 82]
Reply: -0.71

Task item: Specify log10 IC50 for Cn1c(-c2cccc(=O)n2C)cc2c1C(c1ccc(Cl)cc1)N(c1cc(Cl)c(=O)n(C)c1)C2=O (stereo not drawn) [Example 44] and stop.
Reply: -1.18

Task item: Specify reported log10 IC50 for the compound shown: CNC(=O)n1ccc2c1C(c1ccc(Cl)cc1)N(c1cc(C)c3nnc(C)n3c1)C2=O (stereo not drawn) [Example 23]
Reply: -1.28

Task item: Supply log10 IC50 value. Item: Cc1cc(N2C(=O)c3cc[nH]c3C2c2ccc(Cl)cc2)cn2c(C)nnc12 (stereo not drawn) [Example 21]
Reply: -1.33

Task item: # return recorded log10 IC50 for entry COCn1cc(C)c2c1C(c1ccc(Cl)cc1)N(c1cc(C)c3nnn(C)c3n1)C2=O (stereo not drawn) [Example 2]
Reply: -1.92

Task item: Give a short answer stating reported log10 IC50 for COc1ncc(-c2cc3c(n2C)C(c2ccc(Cl)cc2)N(c2cc(C)c(=O)n(C)c2)C3=O)cn1 (stereo not drawn) [Example 55] .
Reply: -1.28

Task item: Indicate the recorded log10 IC50 value for this compound: Cc1cc(N2C(=O)c3cc(-c4cccn(C)c4=O)n(C4CC4)c3C2c2ccc(Cl)cc2)cn(C)c1=O (stereo not drawn) [Example 65]
Reply: -0.66

Task item: Name the recorded log10 IC50 of the compound listed here: Cc1cc(N2C(=O)c3cc(C)n(C)c3C2c2ccc(Cl)cc2)cn(C)c1=O (stereo not drawn) [Example 69]
Reply: -0.92

Task item: Entry COCC(=O)N1CC(n2cc(C)c3c2C(c2ccc(Cl)cc2)N(c2cc(C)c4nnc(C)n4c2)C3=O)C1 (stereo not drawn) [Example 12] needs its log10 IC50 filled in; supply it.
Reply: -1.27

Task item: # return recorded log10 IC50 for entry Cc1cc(N2C(=O)c3c(NC(=O)OC(C)(C)C)cn(C)c3C2c2ccc(Cl)cc2)cn2c(C)nnc12 (stereo not drawn) [Example 102]
Reply: -1.49

Task item: Specify measured log10 IC50 for Cc1cc(N2C(=O)c3ccn(C)c3C2c2ccc(Cl)cc2)cn(C)c1=O (stereo not drawn) [Example 72] .
Reply: -1.05

Task item: Provide one value: measured log10 IC50 of Cc1cn(C)c2c1C(=O)N(c1cc(C)c3nnn(C)c3n1)C2c1ccc(Cl)cc1 (stereo not drawn) [Example 32]
Reply: -0.96

Task item: Return reported log10 IC50. Input compound: COc1ncc(-c2cc3c(n2C)[C@@H](c2ccc(Cl)cc2)N(c2cc(C)c(=O)n(C)c2)C3=O)c(OC)n1 [Example 54]
Reply: -1.35

Task item: Note log10 IC50 for the compound shown: Cn1ccc2c1C(c1ccccc1)N(c1cc(Cl)c(=O)n(C)c1)C2=O (stereo not drawn) [Example 86]
Reply: -0.36

Task item: Give a short answer stating reported log10 IC50 for CC(=O)N1CC(c2cn(C)c3c2C(=O)N(c2cc(C)c4nnc(C)n4c2)C3c2ccc(Cl)cc2)C1 (stereo not drawn) [Example 117] .
Reply: -1.85

Task item: For the compound Cc1cn(C2CCN(C)C2=O)c2c1C(=O)N(c1cc(C)c3nnc(C)n3c1)C2c1ccc(Cl)cc1 (stereo not drawn) [Example 126] , give its measured log10 IC50 value.
Reply: -1.37

Task item: Tell me its log10 IC50 given Cc1cc(N2C(=O)c3ccn(C)c3C2c2ccc(Cl)cc2)nn2c(C)nnc12 (stereo not drawn) [Example 131] as the entry.
Reply: -1.48

Task item: Name the recorded log10 IC50 of the item COc1ncc(-c2cc3c(n2C)[C@@H](c2ccc(Cl)cc2)N(c2cc(C)c(=O)n(C)c2)C3=O)cn1 [Example 56] in your answer.
Reply: -1.55
